Biological target: HLA-A*30:01
Assay: IEDB peptide-MHC binding, purified MHC/direct/fluorescence; filed as Kd, often an IC50 or EC50 that approximates it; bounds were set here for any values at or beyond the usual limits of such assays
Conditions: source organism: Salmonella enterica subsp. enterica serovar Typhi
Quantity name: Kd (µM)
Please state the figure in µM; there is no need to write the unit.

For the sequence shown here, VPQTDAGVT , give the reported Kd. 4.4

---

Target: HLA-A*68:02
Experiment: IEDB peptide-MHC binding, purified MHC/competitive/radioactivity; filed as Kd, often an IC50 or EC50 that approximates it; bounds were set here for any values at or beyond the usual limits of such assays
Details: source organism: Lassa virus GA391
Quantity name: pKd
Quick note: pKd means taking -log10 of the concentration in moles per liter.

Lookup: pKd / HLA-A*68:02 / NISGYNFSL 6.75
